System: 786-0 renal
assay: NCI tumour cell line growth inhibition, 48 h
value_type: TGI

Take a look at these entries with their results.
| compound | value_type | test_value |
| --- | --- | --- |
| C/C=C/C/C=C/CCC(=O)[C@H]1O[C@H]1C(N)=O | TGI | 36.1 µM |
| O=c1cc(-c2ccc(O)cc2)n(C2CC2)c2ccccc12 | TGI | 17.1 µM |
| Nc1ccc(-c2cssc2=S)cc1 | TGI | > 100 µM |

Recorded TGI (compound COCO[C@@H]1C[C@H]2C(=O)N(COC)c3ccccc3C(=O)N2C1 ): > 100 µM

Recorded TGI (compound CC(=O)N1N=C(c2ccc(Nc3nc(Nc4ccc(Cl)cc4)nc(Nc4ccc(Cl)cc4)n3)cc2)CC1c1ccc([N+](=O)[O-])cc1 (stereo not given) ): 26.3 µM

* * *

System: HCT-15 colon
assay: NCI tumour cell line growth inhibition, 48 h
value_type: TGI

Take a look at these entries with their results.
| molecule | test_value |
| --- | --- |
| N#CC(c1ccnc(Cl)n1)c1nc2ccccc2s1 (stereo not given) | 14.8 µM |
| Clc1ccc(/C=C/c2cc(N3CCOCC3)c3cc(Cl)c(Cl)cc3n2)cc1 | > 100 µM |
| COc1cc2c(cc1OCCCCCOc1cc3c(cc1OC)C(=O)N1CC(F)C[C@H]1C=N3)N=C[C@@H]1CC(F)CN1C2=O (stereo not given in full) | 3.72 µM |
| N#CC(C(=O)/C(=N/NC(=O)c1ccccc1O)C(C#N)c1ccccc1)c1ccccc1 (stereo not given) | > 100 µM |
| S=C1Cc2c(-c3ccc(Cl)cc3)cc(-c3ccccc3)nc2-c2ccccc2N1 | > 100 µM |
| CCCOC(=O)C1CCC(=O)N1C(=O)C(C)Cl (stereo not given) | > 100 µM |
| COc1cc(/C=C2/SC(c3ccccc3)N(c3cccc(Cl)c3)C2=O)cc(OC)c1OC (stereo not given) | > 100 µM |
| N#Cc1n[nH]n(C2CCCCC2)c1=O | > 100 µM |
| COc1cc(-c2nc3sccn3c2-c2ccnc(NCCNS(=O)(=O)c3ccc(Cl)cc3)n2)ccc1F | > 100 µM |

Consider now this further molecule.
Recorded TGI (molecule CCOC(=O)/C(=N\OC)C(O)C(F)(F)F (stereo not given) ): > 100 µM

* * *

Test system: SR leukemia
assay: NCI tumour cell line growth inhibition, 48 h
value_type: TGI

| molecule | target_under_test | TGI |
| --- | --- | --- |
| Cn1cc(C2=C(c3cn(CCO)c4ccccc34)C(=O)NC2=O)c2ccccc21 | SR leukemia | > 23.3 µM |
| N#Cc1cccc(OCc2nc(N)nc(N)c2-c2ccc(Cl)c(Cl)c2)c1 | SR leukemia | > 100 µM |
| CC(C)(C)n1c(=O)[nH]n(C2NN=Cc3cccc4cccc2c34)c1=O (stereo unspecified) | SR leukemia | 37.4 µM |
| COc1ccc(-n2cc(-c3cc(OC)c(OC)c(OC)c3)nc2SCc2ccccc2)cc1 | SR leukemia | > 100 µM |
| COc1cc(-c2nc3sccn3c2-c2ccnc(NCCNS(=O)(=O)c3ccc(Cl)cc3)n2)ccc1F | SR leukemia | > 100 µM |
| OC1(c2ccc(Cl)cc2)c2c(ccc3c2OCO3)C2=NCCN21 (stereo unspecified) | SR leukemia | 53 µM |

Recorded TGI (molecule CCOc1ccc(NC(=O)C(=O)NO)cc1 ): > 100 µM

Recorded TGI (molecule CC(=O)N1c2ccccc2C2=CC3C4C(=O)N(c5ccccc5)C(=O)C4C21C1C(=O)N(c2ccccc2)C(=O)C31 (stereo unspecified) ): > 100 µM

Recorded TGI (molecule CC1=C(/C=C/C(=O)O)C(C)(C)CCC1 ): > 100 µM

Recorded TGI (molecule CC(=O)Nc1ccc(/C=C/C(=O)c2ccccc2)cc1 ): 22 µM

Recorded TGI (molecule O=[N+]([O-])c1ccc2[nH]nc(OCc3ccccn3)c2c1 ): > 100 µM

Recorded TGI (molecule O=c1c2c3c(sc2n2c(-c4cc(-c5ccccc5)no4)nnc2n1Cc1ccccc1)CCCC3 ): > 42 µM

Recorded TGI (molecule CO/C=C(/C(=O)OC)c1ccccc1[C@@H]1CC1c1cccc(F)c1 (stereo partly specified) ): > 100 µM

Recorded TGI (molecule Cc1ccc(NP(=O)(Oc2ccccc2)N(CCCl)CCCl)cc1 (stereo unspecified) ): > 100 µM

Recorded TGI (molecule O=c1ccc(N=Nc2ccc([N+](=O)[O-])cc2)ccc1O ): > 100 µM

Recorded TGI (molecule Cc1cc(Cl)cc2c(N=Nc3ccccc3[N+](=O)[O-])c(O)[nH]c12 ): 82.3 µM

Recorded TGI (molecule CCCCCCNC(=O)c1cc(CCc2cc(O)ccc2O)ccc1O ): > 29 µM

Recorded TGI (molecule COc1ccc(/C=C2\C(=O)N(C)C(=O)c3cc(OC)c(OC)cc32)cc1OC ): 55.5 µM

Recorded TGI (molecule CCOC(=O)[C@]12C(=C(c3ccccc3)O[C@H]3C=CCC[C@H]31)C(=O)C(=O)N2c1ccccc1 ): 46.8 µM

Recorded TGI (molecule O=C(Nc1nc(C23CC4CC(CC(C4)C2)C3)cs1)c1c(O)c2ccccc2[nH]c1=O ): > 100 µM

Recorded TGI (molecule O=C(C[C@H](NC(=O)OCc1ccccc1)C(=O)NC1Cc2ccccc2OC1=O)OCc1ccccc1 (stereo partly specified) ): > 100 µM
